B1: tRNA (parent)
chain: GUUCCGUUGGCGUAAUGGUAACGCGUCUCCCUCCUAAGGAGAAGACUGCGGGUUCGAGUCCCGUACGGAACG

variants of: B1; assay: yeast fitness, log relative to wild type (ln ratio); higher = fitter; tRNA-Arg(CCU), competitive growth, 37 C, 1 M NaCl
Quantity Measured: yeast fitness (ln)
Answers are plain numbers.

Here are 8 variants together with their reported answers.
Inquiry: Identify measured yeast fitness (ln) associated with U2G G6U C66A
Reply text: -0.0885

Inquiry: Identify measured yeast fitness (ln) associated with G6A C27U A43C C46U C66A A70G
Reply text: -0.191

Inquiry: Identify measured yeast fitness (ln) associated with C27U A43C C46U C66U
Reply text: -0.217

Inquiry: Identify measured yeast fitness (ln) associated with U2G A43C C66U A69G A70G C71U
Reply text: -0.304

Inquiry: Identify measured yeast fitness (ln) associated with G1A U2C C27U A70G
Reply text: -0.0624

Inquiry: Identify measured yeast fitness (ln) associated with U2G C27U C66A A69G A70G
Reply text: -0.15

Inquiry: Identify measured yeast fitness (ln) associated with G1A C27U C46U A69G A70U
Reply text: -0.118

Inquiry: Identify measured yeast fitness (ln) associated with G1A U2G G6A C46U A70U C71U
Reply text: -0.559

Field: yeast fitness (ln). Fill in for each record below.
1. U2G A43C C46U C66A A69G A70U
2. U2G G6U A70G
3. U2G G6U A43C C46U A69G A70G C71U
4. G1A U2C G6U A43C A69G A70G C71U
5. U2C G6A C27U C46U C66U A70U
6. U2C A43C C46U C66U A70U C71U
7. G1A C46U C66U
8. C27U A43C C46U C66U A69G C71U

Reply text:
[-0.0871, -0.0649, -0.223, -0.268, -0.112, -0.198, -0.118, -0.361]

Inquiry: Identify measured yeast fitness (ln) associated with G6U C27U A43C A69G A70U C71U
Reply text: -0.462
